Target: T1, human G-CSF receptor (human, UniProt Q99062 25-836)
T1 sequence (looked up): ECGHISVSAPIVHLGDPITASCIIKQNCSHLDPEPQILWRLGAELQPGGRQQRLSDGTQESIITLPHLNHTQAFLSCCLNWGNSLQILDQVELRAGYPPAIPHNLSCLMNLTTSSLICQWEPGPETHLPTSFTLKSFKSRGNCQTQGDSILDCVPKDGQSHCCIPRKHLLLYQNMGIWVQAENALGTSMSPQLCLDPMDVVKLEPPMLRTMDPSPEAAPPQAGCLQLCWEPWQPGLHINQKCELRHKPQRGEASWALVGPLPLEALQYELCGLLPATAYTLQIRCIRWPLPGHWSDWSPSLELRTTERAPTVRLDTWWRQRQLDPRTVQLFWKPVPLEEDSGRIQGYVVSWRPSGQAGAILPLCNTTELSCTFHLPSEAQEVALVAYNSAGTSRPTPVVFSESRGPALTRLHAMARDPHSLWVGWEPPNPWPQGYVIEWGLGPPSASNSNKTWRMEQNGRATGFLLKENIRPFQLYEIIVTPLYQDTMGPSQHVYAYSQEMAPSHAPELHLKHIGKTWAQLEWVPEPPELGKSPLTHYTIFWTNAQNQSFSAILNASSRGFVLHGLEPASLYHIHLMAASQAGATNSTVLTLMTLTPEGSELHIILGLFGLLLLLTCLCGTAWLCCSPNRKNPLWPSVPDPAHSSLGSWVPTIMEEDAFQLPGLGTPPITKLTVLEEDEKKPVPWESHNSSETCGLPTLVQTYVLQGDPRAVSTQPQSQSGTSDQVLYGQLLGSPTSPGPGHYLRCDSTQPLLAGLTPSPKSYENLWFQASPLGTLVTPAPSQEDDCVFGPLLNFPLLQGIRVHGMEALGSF
Assay: cell-based or functional assay
Could you mark each record yes if its EC50 (pM), Baf/3-G-CSF cell proliferation assay falls strictly under 70 pM, and no if it equals or exceeds it?

Threshold test, EC50 (pM), Baf/3-G-CSF cell proliferation assay < 70 pM: G-CSF receptor agonist expressed from pMON3450 (ligand) AYKLCHPEELVLLGHSLGIPWAPLSSCPSQALQLAGCLSQLHSGLFLYQGLLQALEGISPELGPTLDTLQLDVADFATTIWQQMEELGMAPALQPTQGAMPAFASAFQRRAGGVLVASHLQSFLEVSYRVLRHLAQPTPLGPASSLPQSFLLKSLEQVRKIQGDGAALQEKLCAT no

Confirm or reject: EC50 (pM), Baf/3-G-CSF cell proliferation assay of G-CSF receptor agonist expressed from pMON25187 (ligand) ATQGAMPAFASAFQRRAGGVLVASHLQSFLEVSYRVLRHLAQPSGGSGGSQSFLLKSLEQVRKIQGDGAALQEKLCATYKLCHPEELVLLGHSLGIPWAPLSSCPSQALQLAGCLSQLHSGLFLYQGLLQALEGISPELGPTLDTLQLDVADFATTIWQQMEELGMAPALQP lies strictly below 70 pM no

Is EC50 (pM), Baf/3-G-CSF cell proliferation assay strictly under 70 pM for the entry G-CSF receptor agonist expressed from pMON3499 (ligand) LLGHSLGIPWAPLSSCPSQALQLAGCLSQLHSGLFLYQGLLQALEGISPELGPTLDTLQLDVADFATTIWQQMEELGMAPALQPTQGAMPAFASAFQRRAGGVLVASHLQSFLEVSYRVLRHLAQPTPLGPASSLPQSFLLKSLEQVRKIQGDGAALQEKLCATYKLCHPEELV ? no

Consider G-CSF receptor agonist expressed from pMON3455 (ligand) AYKLCHPEELVLLGHSLGIPWAPLSSCPSQALQLAGCLSQLHSGLFLYQGLLQALEGISPELGPTLDTLQLDVADFATTIWQQMEELGMAPALQPTQGAMPAFASAFQRRAGGVLVASHLQSFLEVSYRVLRHLAQPSGGSGGSQSFLLKSLEQVRKIQGDGAALQEKLCAT . Does its EC50 (pM), Baf/3-G-CSF cell proliferation assay lie strictly below 70 pM? no

For G-CSF receptor agonist expressed from pMON25182 (ligand) AMAPALQPTQGAMPAFASAFQRRAGGVLVASHLQSFLEVSYRVLRHLAQPTPLGPASSLPQSFLLKSLEQVRKIQGDGAALQEKLCATYKLCHPEELVLLGHSLGIPWAPLSSCPSQALQLAGCLSQLHSGLFLYQGLLQALEGISPELGPTLDTLQLDVADFATTIWQQMEELG , is the recorded EC50 (pM), Baf/3-G-CSF cell proliferation assay below the cut-off of 70 pM? yes

Is EC50 (pM), Baf/3-G-CSF cell proliferation assay of G-CSF receptor agonist expressed from pMON25188 (ligand) ASAFQRRAGGVLVASHLQSFLEVSYRVLRHLAQPSGGSGGSQSFLLKSLEQVRKIQGDGAALQEKLCATYKLCHPEELVLLGHSLGIPWAPLSSCPSQALQLAGCLSQLHSGLFLYQGLLQALEGISPELGPTLDTLQLDVADFATTIWQQMEELGMAPALQPTQGAMPAFA strictly below 70 pM? yes

Confirm or reject: EC50 (pM), Baf/3-G-CSF cell proliferation assay of G-CSF receptor agonist expressed from pMON25183 (ligand) ATQGAMPAFASAFQRRAGGVLVASHLQSFLEVSYRVLRHLAQPTPLGPASSLPQSFLLKSLEQVRKIQGDGAALQEKLCATYKLCHPEELVLLGHSLGIPWAPLSSCPSQALQLAGCLSQLHSGLFLYQGLLQALEGISPELGPTLDTLQLDVADFATTIWQQMEELGMAPALQP lies strictly below 70 pM yes

Lab note: confirm whether the reported EC50 (pM), Baf/3-G-CSF cell proliferation assay for this binder is below 70 pM, equality not counting. binder: G-CSF receptor agonist expressed from pMON25186 (ligand) AMAPALQPTQGAMPAFASAFQRRAGGVLVASHLQSFLEVSYRVLRHLAQPSGGSGGSQSFLLKSLEQVRKIQGDGAALQEKATYKLCHPEELVLLGHSLGIPWAPLSSCPSQALQLAGCLSQLHSGLFLYQGLLQALEGISPELGPTLDTLQLDVADFATTIWQQMEELG no

Hey, just so you know, these numbers are from patent US6358505.
